Answer each item with its documented IC50.
Test: Toxicity in C57BL/6J mouse splenic lymphocytes after 72 hrs by Alamar blue Assay
Format: cell-based
Conditions: splenic lymphocyte
Write the number in nM without appending the unit.

[ask] # IC50 lookup, item `COC1=CC(c2ccc[nH]2)=N/C1=C\c1[nH]c(Cc2ccc(Cl)cc2)cc1CCC1CCCCC1`
[reply] 1010

[ask] # IC50 lookup, item `CCCCCCCCCCCC1=N/C(=C\c2[nH]c(-c3cc4ccccc4[nH]3)cc2OC)C=C1`
[reply] 3410

[ask] # IC50 lookup, item `COC1=CC(c2ccccc2)=N/C1=C\c1[nH]c(C)cc1C`
[reply] 7950

[ask] # IC50 lookup, item `CCCCCCCCCCCc1ccc(/C=C2\N=C(c3ccco3)C=C2OC)[nH]1`
[reply] 980
